All values here come from paper PMC9097471.

SYSTEM: PI5P4Kα-WT (Homo sapiens)
Sequence (P48426 whole entry): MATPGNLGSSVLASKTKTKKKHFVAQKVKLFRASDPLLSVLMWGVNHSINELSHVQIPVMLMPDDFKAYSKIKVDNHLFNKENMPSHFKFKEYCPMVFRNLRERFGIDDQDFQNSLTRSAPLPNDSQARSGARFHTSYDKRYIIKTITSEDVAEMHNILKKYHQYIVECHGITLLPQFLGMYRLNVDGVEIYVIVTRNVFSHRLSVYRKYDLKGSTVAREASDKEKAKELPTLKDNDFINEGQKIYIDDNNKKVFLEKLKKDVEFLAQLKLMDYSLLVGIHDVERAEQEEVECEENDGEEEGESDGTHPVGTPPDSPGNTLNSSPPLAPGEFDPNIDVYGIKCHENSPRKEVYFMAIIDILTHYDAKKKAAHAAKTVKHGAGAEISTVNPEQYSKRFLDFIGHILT
TEST SUMMARY: ADP-Glo inhibition assay
pIC50: −log10 of the molar value.
In this section we review reported pIC50 values for a set of compounds.

Log: PI5P4Kα-WT (Homo sapiens), compound Cc1nc(CNc2ncnc3ccc(-c4ccc5c(c4)OCO5)cc23)cs1 [ML197, reference compound] , pIC50 = < 4.30

Log: PI5P4Kα-WT (Homo sapiens), compound Cn1nnnc1Sc1ncnc2scc(-c3cccc(S(C)(=O)=O)c3)c12 , pIC50 = 5.70

Log: PI5P4Kα-WT (Homo sapiens), compound Cc1nc(CN(C)c2ncnc3ccc(-c4ccc5c(c4)OCO5)cc23)cs1 [ML106, reference compound] , pIC50 = < 4.30

====

pKd: −log10 of the molar value.
PI5P4Kβ (Homo sapiens, UniProt P78356): recorded pKd for assorted compounds
Sequence (P78356 whole entry): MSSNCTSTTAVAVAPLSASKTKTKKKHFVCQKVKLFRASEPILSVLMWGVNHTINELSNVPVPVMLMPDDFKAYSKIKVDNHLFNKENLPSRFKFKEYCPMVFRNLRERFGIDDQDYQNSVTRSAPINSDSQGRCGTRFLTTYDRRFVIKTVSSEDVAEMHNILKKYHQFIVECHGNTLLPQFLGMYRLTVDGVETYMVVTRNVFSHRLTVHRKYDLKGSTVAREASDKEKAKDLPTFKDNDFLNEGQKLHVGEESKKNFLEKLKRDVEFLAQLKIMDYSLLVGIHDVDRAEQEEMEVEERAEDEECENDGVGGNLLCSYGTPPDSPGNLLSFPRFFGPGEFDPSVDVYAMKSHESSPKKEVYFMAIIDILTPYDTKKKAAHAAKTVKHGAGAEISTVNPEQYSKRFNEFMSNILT

COMPOUND	REPORTED VALUE
FC(F)(F)c1ccccc1-c1nc(NCc2cccs2)c2ccccc2n1 [Compound 1, NIH-12848, reference compound]	< 4.52

Log: PI5P4Kβ (Homo sapiens, UniProt P78356), compound CC(C)c1ccccc1-c1nc(NCc2ccccn2)c2c(ccn2C)n1 , pKd = < 4.52

====

SYSTEM: PI5P4Kβ-WT (Homo sapiens, UniProt P78356)
Sequence (P78356 whole entry): as the sequence (P78356 whole entry) above
TEST SUMMARY: ADP-Glo inhibition assay
TEST PARAMETERS: read-out: PI5P4Kβ IC50; ADP-Glo, new data
pIC50: −log10 of the molar value.
EXPERIMENTAL ENDPOINT: pIC50

FC(F)(F)c1ccccc1-c1nc(NCc2cccs2)c2ccccc2n1 [Compound 1, NIH-12848, reference compound] yielded pIC50 of < 4.60

====

SYSTEM: PI5P4Kγ+ (Homo sapiens, UniProt Q8TBX8, D138G/D197E/E133P/E135D/E153T/E196G/G136S/G139A/N195G/S132L/S134N)
Construct: GST (N, cleaved yes); made in house; host or cells: E. coli BL21(DE3), pGEX6P
Sequence (Q8TBX8 with tags, fused parts or gaps with the stated changes): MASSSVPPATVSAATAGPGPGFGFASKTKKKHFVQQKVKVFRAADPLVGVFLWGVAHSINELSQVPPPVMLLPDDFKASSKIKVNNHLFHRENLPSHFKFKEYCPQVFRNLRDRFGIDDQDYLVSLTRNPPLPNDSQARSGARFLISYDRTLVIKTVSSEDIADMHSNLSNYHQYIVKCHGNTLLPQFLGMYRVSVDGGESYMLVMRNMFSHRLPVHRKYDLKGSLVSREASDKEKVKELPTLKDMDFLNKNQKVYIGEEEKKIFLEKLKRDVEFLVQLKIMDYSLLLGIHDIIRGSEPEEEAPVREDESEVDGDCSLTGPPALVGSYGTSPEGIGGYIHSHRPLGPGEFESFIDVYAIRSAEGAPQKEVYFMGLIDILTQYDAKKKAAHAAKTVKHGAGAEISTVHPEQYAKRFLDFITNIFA
TEST SUMMARY: ADP-Glo inhibition assay
Assay type: biochemical
TEST PARAMETERS: ligand efficiency from PI5P4Kγ+ pIC50
EXPERIMENTAL ENDPOINT: PI5P4Kγ+ LE

MOLECULE	PI5P4Kγ+ LE
CCc1ccccc1-c1nc(NCc2ccccn2)c2ccccc2n1	0.29
c1ccc(CNc2nc(-c3ccccc3C3CC3)nc3ccccc23)nc1	0.29
CC(C)c1ccccc1-c1nc(NC(C)c2ccccn2)c2ccccc2n1 (stereo not drawn)	0.22
CC(C)c1ccccc1-c1nc(NCc2ccccn2)c2cc(Br)ccc2n1	0.33
FC(F)(F)c1ccccc1-c1nc(NCc2cccs2)c2ccccc2n1 [Compound 1, NIH-12848, reference compound]	0.32
COc1cccc(-c2nc(NCc3ccccn3)c3ccccc3n2)c1	0.27
Fc1ccc(C(F)(F)F)c(-c2nc(NCc3ccccn3)c3ccccc3n2)c1	0.26
c1ccc(-c2ccccc2-c2nc(NCc3ccccn3)c3ccccc3n2)cc1	0.24
FC(F)(F)c1ccccc1-c1nc(NCc2ccccc2)c2ccccc2n1	0.26

====

TEST SUMMARY: Kinetic solubility
Type: physicochemical
TEST PARAMETERS: PBS buffer, PBS pH 7.4
EXPERIMENTAL ENDPOINT: solubility at 2 h (µM)

MOLECULE	solubility at 2 h / µM
CC(C)c1ccccc1-c1nc(NCc2ccccn2)c2c(ccn2C)n1 [Compound 40]	7

(P) Cc1cnc(-c2ccccc2C(F)(F)F)nc1NCc1ccccn1 [Compound 35]
(Q) FC(F)(F)c1ccccc1-c1nc(NCc2ccccn2)c2ccccc2n1 [Compound 14]
(R) FC(F)(F)c1ccccc1-c1nc(NCc2ccccn2)c2cccnc2n1 [Compound 38]
[in] With regard to solubility at 2 h, arrange the entries in ascending order, please. Form field (ranking): labels in requested order.
[out] R, Q, P

====

In this section we review reported IC50 values for a set of compounds.
SYSTEM: PI5P4Kγ+ (Homo sapiens, UniProt Q8TBX8, D138G/D197E/E133P/E135D/E153T/E196G/G136S/G139A/N195G/S132L/S134N)
Construct: GST (N, cleaved yes); made in house; host or cells: E. coli BL21(DE3), pGEX6P
TEST SUMMARY: ADP-Glo inhibition assay
Type: biochemical
TEST PARAMETERS: ADP-Glo, mutant PI5P4Kγ+ construct; read-out: PI5P4Kγ+ pIC50 (converted)

Here's what some known entries look like.
MOLECULE SMILES	EXPERIMENTAL ENDPOINT	REPORTED VALUE
N#Cc1ccccc1-c1nc(NCc2ccccn2)c2ccccc2n1	IC50	> 50.1 µM
Clc1ccc(-c2nc(NCc3cccs3)c3ccccc3n2)cc1	IC50	> 50.1 µM
Cc1ccccc1-c1nc(NCc2cccs2)c2ccccc2n1	IC50	> 31.6 µM
CC(C)c1ccccc1-c1nc(Nc2ccccn2)c2ccccc2n1	IC50	> 25.1 µM

Shift focus to the following entry.
FC(F)(F)c1cccc(-c2nc(NCc3ccccn3)c3ccccc3n2)c1 yielded IC50 of > 50.1 µM

====

In this section we review reported fraction unbound at 4 h, 10 µM values for a set of compounds.
TEST SUMMARY: Plasma protein binding
Format: in vitro ADME
TEST PARAMETERS: Mouse plasma protein binding; read-out: mPPB (converted)

Here's what some known entries look like.
COMPOUND	fraction unbound at 4 h, 10 µM
CC(C)c1ccccc1-c1nc(NCc2ccccn2)c2ccccc2n1	< 0.01
FC(F)(F)c1ccccc1-c1nc(NCc2ccccn2)c2ccccc2n1	< 0.01

Shift focus to the following entry.
FC(F)(F)c1ccccc1-c1nc(NCc2cccs2)c2ccccc2n1 [Compound 1, NIH-12848, reference compound] yielded fraction unbound at 4 h, 10 µM of < 0.01

====

SYSTEM: PI5P4Kγ+ (Homo sapiens, UniProt Q8TBX8, D138G/D197E/E133P/E135D/E153T/E196G/G136S/G139A/N195G/S132L/S134N)
Construct: GST (N, cleaved yes); made in house; host or cells: E. coli BL21(DE3), pGEX6P
TEST SUMMARY: ADP-Glo inhibition assay
Format: biochemical
TEST PARAMETERS: ADP-Glo, mutant PI5P4Kγ+ construct; read-out: PI5P4Kγ+ pIC50 (converted)
In this section we review reported IC50 values for a set of molecules.

Here's what some known entries look like.
MOLECULE	IC50
CC(C)c1ccccc1-c1nc(NCc2ccc(C(F)(F)F)cn2)c2ccccc2n1	> 50.1 µM
CC(C)c1ccccc1-c1nc(NCc2ccccn2)c2ccn(C)c2n1	> 50.1 µM
c1ccc(-c2nc(NCc3cccs3)c3ccccc3n2)cc1	> 50.1 µM
COc1cccc(-c2nc(NCc3ccccn3)c3ccccc3n2)c1	7.94 µM
FC(F)(F)c1ccc(-c2nc(NCc3ccccn3)c3ccccc3n2)cc1	> 50.1 µM
COc1ccc(-c2nc(NCc3ccccn3)c3ccccc3n2)cc1	7.94 µM
Cc1nc(CNc2ncnc3ccc(-c4ccc5c(c4)OCO5)cc23)cs1 [ML197, reference compound]	3.98 µM
FC(F)(F)c1ccccc1-c1nc(NCc2cccnc2)c2ccccc2n1	> 50.1 µM
FC(F)(F)c1ccccc1-c1nc(NCCc2cccs2)c2ccccc2n1	> 50.1 µM
Fc1ccc(C(F)(F)F)c(-c2nc(NCc3ccccn3)c3ccccc3n2)c1	3.98 µM

c1ccc(CNc2nc(-c3ccccc3C3CC3)nc3ccccc23)nc1 yielded IC50 of 2.51 µM

FC(F)(F)c1ccccc1-c1nc(NCC2CCCCC2)c2ccccc2n1 yielded IC50 of > 50.1 µM

COc1ccccc1-c1nc(NCc2cccs2)c2ccccc2n1 yielded IC50 of > 50.1 µM
